Tested on: HCT-116
Test: NCI tumour cell line growth inhibition, 48 h
The source made the active and inactive calls. Cut-off read from the data, not from the text of the source: active = GI50 up to about 1.1 µM and inactive = higher.
endpointName: GI50

INSERT INTO results (molecule, endpointname, recordedmeasurement) VALUES
  ('CCOc1ccc2nc3nc(O)nc(C)c3c(NCCCN(CC)CC)c2c1', 'GI50', '> 100 µM (inactive)'),
  ('Cc1ccc(S(=O)(=O)NNCNC(=O)c2ccccc2)cc1', 'GI50', '> 100 µM (inactive)'),
  ('CCN=C=NCCCN(C)C', 'GI50', '> 100 µM (inactive)'),
  ('COc1cc2c(cc1OCCCN1CCN(C)CC1)N=C[C@@H]1CCCN1C2=O', 'GI50', '2.7 µM (inactive)'),
  ('CC(=O)N1N=C(c2ccc3ccccc3c2O)CC1c1cccs1 (stereo not given)', 'GI50', '9.89 µM (inactive)'),
  ('COc1cc([C@@H]2c3cc4c(cc3[C@@H](OC3OC5COC(C)OC5C(OC(=O)CN5CCN(C)CC5)C3OC(=O)CN3CCN(C)CC3)C3COC(=O)[C@@H]32)OCO4)cc(OC)c1OC(=O)CN1CCN(C)CC1 (stereo not given in full)', 'GI50', '25.5 µM (inactive)'),
  ('CCN(CC)CCSc1c2ccccc2nc2c(OC)ccc(OC)c12', 'GI50', '3.04 µM (inactive)'),
  ('N#Cc1nc(CCC(C(=O)O)N2C(=O)c3ccccc3C2=O)oc1N (stereo not given)', 'GI50', '> 10 µM (inactive)'),
  ('NC(=S)N/N=C1/CN(c2ccc(Cl)c(Cl)c2)CC(=O)C1c1nc2ccccc2s1 (stereo not given)', 'GI50', '35.6 µM (inactive)'),
  ('O=C1CCCCN1', 'GI50', '> 1120 µM (inactive)');
